Source listed as patent US20130011427A1.

tested on: HLA-B7 (HLA-B*0702) Tg mice, CD4-depleted splenocytes; format: cell-based, mouse
readout_kind: T cell activation of HLA transgenic mice (SFC/10^6) IFN-γ ELISpot, B7

>>> df
                      entry_sequence  display_unit  result
0  ISAYTPWAILPSVVGFWI [NS2b 107-124]      SFC/10^6      81
1     SAEVEEHRTIRVLEMV [NS5 153-168]      SFC/10^6     112
2    LRNPGYALVAAVIGWML [prM 129-145]      SFC/10^6      31
3     WMEDKTPVEKWSDVPY [NS5 828-843]      SFC/10^6      39
4       TFLVHREWFMDLNLPW [E 210-225]      SFC/10^6     519
5         GKSRAVNMLKRGMPRVL [C 9-25]      SFC/10^6      43
6         GGVLWDTPSPKEYKK [NS3 1-15]      SFC/10^6      45
7     PAAPSYTLKLGEYGEVTV [E 171-188]      SFC/10^6     996
8   YAQMWLLLYFHRRDLRLM [NS5 763-780]      SFC/10^6      36
9   CDIGESSSSAEVEEHRTI [NS5 145-162]      SFC/10^6      50
